Each entry below carries its reported MIC.
Test system: Staphylococcus aureus
Test: Tested in vitro against Staphylococcus aureus IID803 by agar dilution method
Format: functional
I only need the number, in µg/mL, no unit after it.

Here are 5 molecules together with their reported answers.
| Molecule | Assay Target | Measured Value |
| --- | --- | --- |
| CCn1cc(C(=O)O)c(=O)c2cc(F)c(N3CCNCC3)cc21 | Staphylococcus aureus | 1.56 |
| CC1CN(c2c(F)cc3c(=O)c(C(=O)O)cn(C4CC4)c3c2F)CCN1 (centres undefined) | Staphylococcus aureus | 0.2 |
| CC1COc2c(N3CCN(C)CC3)c(F)cc3c(=O)c(C(=O)O)cn1c23 (centres undefined) | Staphylococcus aureus | 0.78 |
| CC1CN(c2c(F)cc3c(=O)c(C(=O)O)cn(C4CC4)c3c2F)CC(C)N1 (centres undefined) | Staphylococcus aureus | 0.39 |
| O=C(O)c1cn(C2CC2)c2c(F)c(N3CCNCC3)c(F)cc2c1=O | Staphylococcus aureus | 0.39 |

// moving on: another record for MIC
Just so you know, measured MIC for CC1CN(c2c(F)cc3c(=O)c(C(=O)O)cn(C4CC4)c3c2F)CC(C)N1O (centres undefined) came out at 0.2
